Listed here: items and their measured Population Apoptotic (%).
# Test system: HEK-293T
# Run Description: Multiplex assay against HEK293T
# Format: toxicity, cell-based
# Run Parameters: human, 48 h, 10 µM, compound concentration 10 uM, replicate 2
Assay Endpoint: Population Apoptotic (%)

Compound: CNc1nc(NCc2ccc(NS(C)(=O)=O)cc2Cl)cc(-c2ccccn2)n1
Assay Endpoint: Population Apoptotic (%)
Readout Number: 61

Compound: C=CC(=O)Nc1ccc2ncnc(Nc3ccc(OCc4cccc(F)c4)c(Cl)c3)c2c1.Cc1ccc(S(=O)(=O)O)cc1
Assay Endpoint: Population Apoptotic (%)
Readout Number: 60

Compound: C[C@@]1(C(=O)Nc2ccc(F)nc2)CCCN1c1nc(Nc2cc(C3CC3)n[nH]2)c2cccn2n1 [BMS-754807]
Assay Endpoint: Population Apoptotic (%)
Readout Number: 78

Compound: OC1(c2ccc(Cl)cc2)CCN(Cc2c[nH]c3ccccc23)CC1
Assay Endpoint: Population Apoptotic (%)
Readout Number: 89

Compound: CN(C)C(=O)/C(C#N)=C/c1ccc(-c2nc3cnc4[nH]ccc4c3n2C2CCCCC2)o1
Assay Endpoint: Population Apoptotic (%)
Readout Number: 35

Compound: CC(C)NCC(O)COc1ccc(CCOCC2CC2)cc1.Cl (configuration not stated) [BETAXOLOL HYDROCHLORIDE]
Assay Endpoint: Population Apoptotic (%)
Readout Number: 40

Compound: COc1cccc([C@@H](C)NCCCc2ccccc2Cl)c1.Cl [TECALCET HYDROCHLORIDE]
Assay Endpoint: Population Apoptotic (%)
Readout Number: 58
